- assayedTarget: T1, NEIL2 (Homo sapiens, UniProt Q969S2 1-332)
- T1 sequence: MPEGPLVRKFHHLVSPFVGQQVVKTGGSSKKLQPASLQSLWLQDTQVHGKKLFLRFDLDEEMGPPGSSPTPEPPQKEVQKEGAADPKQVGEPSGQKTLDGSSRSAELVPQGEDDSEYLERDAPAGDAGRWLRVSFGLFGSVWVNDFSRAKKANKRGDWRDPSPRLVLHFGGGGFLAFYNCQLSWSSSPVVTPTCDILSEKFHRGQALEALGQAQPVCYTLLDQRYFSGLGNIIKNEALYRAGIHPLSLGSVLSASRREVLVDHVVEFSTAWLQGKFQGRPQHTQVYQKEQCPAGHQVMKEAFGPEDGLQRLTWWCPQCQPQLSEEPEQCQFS
- assayDetails: EMSA
quantityMeasured: Kd (nM)

binder	quantityMeasured	readoutNumber
20mer_dC duplex (unmodified) (dsDNA) DNA 1: CGCTAGGATCCGGCCCCGCC DNA 2: GGCGGGGCCGGATCCTAGCG	Kd	27
